Tested on: SK-OV-3 ovarian
test summary: NCI-60 one-dose screen, 48 h
measurement conditions: 10 µM unless noted
About 83,000 compounds went through this panel and 20% of them were active in at least one assay; those are over-represented in the sample as a whole. Active and inactive are the calls of the source. Rule for the calls: active = growth percent below 10; inactive = the rest.
Thanks in advance; please answer with one of these: active, inactive

Query: Check the results log: what was the call for CCCCOC(=O)OCc1cc(=O)c(O)co1 ?
Response: inactive

Query: Check the results log: what was the call for COCCn1cc(-c2nc(-c3cc4cccnc4n3CCOC)cs2)c2cc(OC)ccc21 ?
Response: inactive

Query: Check the results log: what was the call for Cc1nn(-c2ccccc2)c(Oc2ccccn2)c1-c1nc2ccccc2s1 ?
Response: inactive

Query: Check the results log: what was the call for O=C(NNc1nccc(Nc2ccc(S(=O)(=O)Nc3ccncc3)cc2)n1)c1ccccc1 ?
Response: inactive

Query: Check the results log: what was the call for Cc1cc2c(O)c(-c3cc(Cl)ccc3Cl)c3sc(=O)oc3c2cc1C ?
Response: inactive

Query: Check the results log: what was the call for O=C(COc1ccc(-c2nc3ccccc3[nH]2)cc1)N=Nc1c(O)[nH]c2ccc(Cl)cc12 ?
Response: inactive

Query: Check the results log: what was the call for CN(C)c1ccc(/C=C/C(=O)c2ccc(-n3cc(CN4CCN(c5cc6c(cc5F)c(=O)c(C(=O)O)cn6C5CC5)CC4)nn3)cc2)cc1 ?
Response: inactive

Query: Check the results log: what was the call for O=C1c2c(c3c4ccccc4[nH]c3c3ccc4ccccc4c23)C(=O)N1CCN1CCCCC1 ?
Response: inactive

Query: Check the results log: what was the call for Cc1nc(-c2ccccc2)cc2c(O)c(C(=O)NN)[nH]c(=O)c12 ?
Response: inactive

Query: Check the results log: what was the call for COc1cc2c(c(OC)c1OC)-c1ccc(OC)c(=O)cc1[C@@H](NC(=O)CCl)CC2 ?
Response: inactive

Query: Check the results log: what was the call for COc1ccccc1Nc1nc2c(s1)C1=CC[C@H]3[C@@H]4CC[C@H]([C@H](C)CCCC(C)C)[C@@]4(C)CC[C@@H]3[C@@]1(C)CC2 ?
Response: inactive

Query: Check the results log: what was the call for Cc1nc2sc(C(=O)Nc3ccccc3)c(N)c2cc1C(=O)c1ccccc1 ?
Response: active

Query: Check the results log: what was the call for COc1ccc(-c2nc3c(c(-c4ccccc4)nn3-c3ccccc3)c(-c3ccc(N4CCN(C)CC4)cc3)c2C#N)cc1 ?
Response: inactive

Query: Check the results log: what was the call for O=C(Nc1ncc(Cc2ccc(Cl)c(C(F)(F)F)c2)s1)c1ccc2nnsc2c1 ?
Response: inactive

Query: Check the results log: what was the call for O=C1N(Cc2ccccc2Cl)c2ccccc2C12NN=C(c1cccc(Cl)c1)S2 (stereo unspecified) ?
Response: active

Query: Check the results log: what was the call for CC(=O)[C@@H]1CCC=C2CC[C@]3(C)[C@@H](CC[C@@H]4[C@@]5(C)CCCNC(C)(C)[C@@H]5CC[C@]43C)[C@H]21 ?
Response: inactive

Query: Check the results log: what was the call for N#Cc1cccc(NC(=O)c2oc3ccccc3c2-c2cnn(-c3ccccc3)c2)c1 ?
Response: inactive

Query: Check the results log: what was the call for C=C1C(=O)O[C@H]2[C@H]1CC/C(COC(=O)NCc1cc[nH]c1)=C\CC[C@@]1(C)O[C@@H]21 ?
Response: inactive

Query: Check the results log: what was the call for CC1Cc2c(Cl)ncnc2N(C)c2ccc(F)cc21 (stereo unspecified) ?
Response: inactive

Query: Check the results log: what was the call for C[C@@H]1CCC[C@H]1CC(N)C(=O)O (stereo partly specified) ?
Response: inactive

Query: Check the results log: what was the call for COc1ccc2[nH]cc(-c3nc(-c4cn(C)c5c(Cl)nccc45)cs3)c2c1 ?
Response: inactive

Query: Check the results log: what was the call for CCc1n(Cc2ccc3ccccc3c2)cc[n+]1Cc1ccc2ccccc2c1 ?
Response: active

Query: Check the results log: what was the call for Cc1cc(N)c2cc(NC(=O)/C=C\c3ccccc3Cl)ccc2n1 ?
Response: active

Query: Check the results log: what was the call for Cc1ccc(NC(=S)NNC(=S)NNc2ccccc2)cc1C ?
Response: inactive

Query: Check the results log: what was the call for COC(=O)c1cc(-c2ccccc2)[nH]c1N/N=C/c1c(Cl)cccc1Cl ?
Response: inactive

Query: Check the results log: what was the call for COc1ccc2[nH]cc(-c3nc(-c4c[nH]c5ccncc45)cs3)c2c1 ?
Response: inactive

Query: Check the results log: what was the call for O=C(Nc1nc2ccc(F)cc2s1)c1cccnc1Nc1ccc(Cl)cc1 ?
Response: inactive

Query: Check the results log: what was the call for O=C1Nc2ccccc2/C1=C\c1nc(-c2ccccc2)n2ccccc12 ?
Response: inactive

Query: Check the results log: what was the call for COCCNC(=O)c1ccc(-c2nc3ccc4[nH]ncc4c3c3c2CCCC3)cc1 ?
Response: active

Query: Check the results log: what was the call for COc1ccc(/C=N/NC(=O)CCN2c3ccccc3Sc3ccccc32)cc1 ?
Response: inactive

Query: Check the results log: what was the call for O=C1c2cccc3cccc(c23)C(=O)N1N1C(=O)c2cccc3c(N4CCOCC4)ccc(c23)C1=O ?
Response: inactive

Query: Check the results log: what was the call for COC1C[C@H](O[C@@H]2C[C@H](O[C@@H]3C[C@H](O[C@@H]4C(=O)c5c(cc6cc(O[C@H]7C[C@@H](O[C@H]8C[C@@H](O)[C@H](O)C(C)O8)[C@H](O)C(C)O7)c(C)c(O)c6c5O)C[C@H]4C(OC)C(=O)[C@@H](O)[C@@H](C)O)OC(C)[C@H]3O)OC(C)[C@@H]2O)OC(C)[C@@H]1O (stereo partly specified) ?
Response: inactive

Query: Check the results log: what was the call for N#CCSc1nnc2n(Cc3ccccc3)c(=O)c3c4c(sc3n12)CCCC4 ?
Response: inactive

Query: Check the results log: what was the call for CC(C)=NNc1ccccn1 ?
Response: inactive

Query: Check the results log: what was the call for CC(C)(C)c1cc(-c2nc3ccc(N4CCN(S(C)(=O)=O)CC4)cc3[nH]2)cc(C(C)(C)C)c1O ?
Response: inactive

Query: Check the results log: what was the call for CC[C@@H](C(=O)[C@@H](C)[C@@H](O)[C@H](C)[C@@H]1O[C@@H]([C@@H](CC)C(=O)NCCc2ccc(F)cc2)CC[C@@H]1C)C1O[C@]2(C=CC(=O)[C@]3(CC[C@@](C)([C@H]4CC[C@](O)(CC)[C@H](C)O4)O3)O2)[C@H](C)C[C@@H]1C (stereo partly specified) ?
Response: inactive
